These entries and their values trace back to patent US6730670B2.

- testedTarget: human adenosine A2A receptor (Homo sapiens)
- Construct: expressed in transfected cells; host or cells: CHO cells, Semliki Forest virus expression system; washed membrane preparation
- Sequence (P29274 whole entry): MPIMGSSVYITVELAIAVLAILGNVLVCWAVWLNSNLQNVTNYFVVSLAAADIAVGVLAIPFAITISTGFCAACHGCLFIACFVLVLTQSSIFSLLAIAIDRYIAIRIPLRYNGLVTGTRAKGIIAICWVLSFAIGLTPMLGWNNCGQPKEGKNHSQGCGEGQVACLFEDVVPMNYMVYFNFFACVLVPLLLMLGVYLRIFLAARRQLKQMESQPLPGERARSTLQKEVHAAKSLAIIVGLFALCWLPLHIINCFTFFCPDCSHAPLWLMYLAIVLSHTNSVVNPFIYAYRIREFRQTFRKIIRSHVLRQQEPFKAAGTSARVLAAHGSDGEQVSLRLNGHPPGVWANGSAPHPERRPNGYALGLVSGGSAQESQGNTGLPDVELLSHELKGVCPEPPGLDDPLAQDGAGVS
- experimentalDetails: [3H]-SCH-58261 binding assay, human adenosine A2A receptor (CHO cell membranes, SPA)
- particulars: [3H]-SCH-58261 1 nM; membranes of CHO cells expressing human A2A receptor; Ki from IC50 by Cheng-Prussoff equation; read-out: hA2 (pKi) (converted)
One threshold, 300 nM, splits the recorded Ki values: lower ones are T, equal or higher ones are F.

structureString: COc1ccc(-c2ccccc2)c2sc(NC(=O)N3CCSCC3)cc12
testedTarget: human adenosine A2A receptor (Homo sapiens)
class: T
//
structureString: COc1ccc(-c2ccccc2)c2sc(NC(=O)N3CCCCC3)cc12
testedTarget: human adenosine A2A receptor (Homo sapiens)
class: T
//
structureString: COc1ccc(-c2ccccc2)c2sc(NC(=O)N3CCC(OC)CC3)cc12
testedTarget: human adenosine A2A receptor (Homo sapiens)
class: F

Decide: Ki of COc1ccc(-c2ccccc2)c2sc(NC(=O)N3CCN(C)CC3)cc12 strictly below 300 nM?
T

State whether 300 nM exceeds Ki recorded for COc1ccc(-c2ccccc2)c2sc(NC(=O)N3CCC(CO)CC3)cc12 .
T

State whether 300 nM exceeds Ki recorded for COc1ccc(-c2ccccc2)c2sc(NC(=O)N3CCOCC3)cc12 .
T

Find out if reported Ki for COc1ccc(-c2ccccc2)c2sc(NC(=O)c3ccnc(C)c3)cc12 is less than 300 nM
F

Decide: Ki of COc1ccc(-c2ccccc2)c2sc(NC(=O)N3CCC(O)CC3)cc12 strictly below 300 nM?
T

Record COc1ccc(-c2ccccc2)c2sc(NC(=O)c3ccc(F)cc3)cc12 : is its Ki strictly below 300 nM?
T
